Each recorded value in this set is attributed to ChEMBL document CHEMBL5291721.

targetOfAssay: Gamma-aminobutyric acid receptor subunit alpha-1 (Rattus norvegicus)
Sequence (P62813 whole entry): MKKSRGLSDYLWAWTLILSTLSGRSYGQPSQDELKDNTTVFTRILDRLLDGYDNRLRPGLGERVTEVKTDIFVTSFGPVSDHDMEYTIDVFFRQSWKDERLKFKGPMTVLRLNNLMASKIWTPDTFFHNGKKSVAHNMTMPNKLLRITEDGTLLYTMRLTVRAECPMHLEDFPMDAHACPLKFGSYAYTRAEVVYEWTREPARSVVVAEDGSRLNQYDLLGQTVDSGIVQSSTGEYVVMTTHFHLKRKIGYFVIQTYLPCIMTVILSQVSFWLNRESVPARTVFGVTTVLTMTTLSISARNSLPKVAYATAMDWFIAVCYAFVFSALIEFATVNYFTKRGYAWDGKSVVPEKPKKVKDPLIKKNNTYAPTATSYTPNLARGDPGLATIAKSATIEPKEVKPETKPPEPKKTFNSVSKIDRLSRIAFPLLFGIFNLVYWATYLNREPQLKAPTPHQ
measuredMetric: AC50

Examples from the recorded data:
[
  {
    "molecule": "CCOC(=O)C1=C(C)NC(C)=C(C(=O)OC)C1c1cccc(Cl)c1Cl (centres undefined) [FELODIPINE]",
    "measuredMetric": "AC50",
    "assayResult": "> 10 µM"
  },
  {
    "molecule": "CCNC(=O)CCC/C=C\\C[C@@H]1[C@@H](/C=C/[C@@H](O)CCc2ccccc2)[C@H](O)C[C@@H]1O [BIMATOPROST]",
    "measuredMetric": "AC50",
    "assayResult": "> 30 µM"
  },
  {
    "molecule": "NCCCCCC(=O)O [AMINOCAPROIC ACID]",
    "measuredMetric": "AC50",
    "assayResult": "> 10 µM"
  }
]

In: Please report the recorded AC50 for CC(C)CN(C[C@@H](O)[C@H](Cc1ccccc1)NC(=O)O[C@H]1CCOC1)S(=O)(=O)c1ccc(N)cc1 .
Out: > 10 µM

In: Ok, now CC1CC(OC(=O)C(O)c2ccccc2)CC(C)(C)C1 (centres undefined) [CYCLANDELATE]
Out: > 10 µM

In: Next molecule: C[C@]12CCC(=O)C=C1C=C[C@@H]1[C@@H]2CC[C@@]2(C)[C@H]1CC[C@@]21CCC(=O)O1 [CANRENONE]
Out: > 30 µM

###

The molecules listed here are annotated with their AC50.
targetOfAssay: 5-hydroxytryptamine receptor 3A (Homo sapiens, UniProt P46098); note: assay procedure not described here
Sequence (P46098 whole entry): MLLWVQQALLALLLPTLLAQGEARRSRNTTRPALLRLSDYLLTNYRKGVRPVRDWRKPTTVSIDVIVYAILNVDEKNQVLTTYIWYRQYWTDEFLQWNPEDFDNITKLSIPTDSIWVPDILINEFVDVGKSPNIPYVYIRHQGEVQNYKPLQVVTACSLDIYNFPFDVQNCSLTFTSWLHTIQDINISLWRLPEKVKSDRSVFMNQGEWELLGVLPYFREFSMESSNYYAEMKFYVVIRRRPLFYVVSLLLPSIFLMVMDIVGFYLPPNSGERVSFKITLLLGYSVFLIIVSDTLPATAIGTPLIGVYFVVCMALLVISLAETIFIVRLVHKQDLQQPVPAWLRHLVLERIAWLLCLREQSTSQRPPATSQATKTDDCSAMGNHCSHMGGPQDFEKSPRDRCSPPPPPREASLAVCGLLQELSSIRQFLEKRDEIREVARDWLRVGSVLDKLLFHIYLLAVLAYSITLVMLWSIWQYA
Format: functional

The cases that follow already have their AC50 on record.
[
  {
    "molecule": "CCC(=O)[C@@]1(C)[C@H](C)C[C@H]2[C@@H]3CCC4=CC(=O)C=C[C@]4(C)[C@H]3[C@@H](O)C[C@@]21C [RIMEXOLONE]",
    "AC50": "> 30 µM"
  },
  {
    "molecule": "O=C(O)[C@H]1/C(=C/CO)O[C@@H]2CC(=O)N21",
    "AC50": "> 30 µM"
  },
  {
    "molecule": "CC1(C)O[C@@H]2C[C@H]3[C@@H]4CCC5=CC(=O)C=C[C@]5(C)[C@@]4(F)[C@@H](O)C[C@]3(C)[C@]2(C(=O)CO)O1 [TRIAMCINOLONE ACETONIDE]",
    "AC50": "> 30 µM"
  },
  {
    "molecule": "CN1C(=O)CN=C(c2ccccc2F)c2cc([N+](=O)[O-])ccc21",
    "AC50": "> 10 µM"
  },
  {
    "molecule": "CC(C)(CO)c1cc2cc(NC(=O)C3(c4ccc5c(c4)OC(F)(F)O5)CC3)c(F)cc2n1C[C@@H](O)CO",
    "AC50": "> 30 µM"
  }
]

In: What does the data say about its AC50? Entry: Cc1ccc(O)c([C@H](CCN(C(C)C)C(C)C)c2ccccc2)c1
Out: > 10 µM

In: And NCC1(CC(=O)O)CCCCC1 ?
Out: > 30 µM

In: And for COc1ccc(-n2nc(C(N)=O)c3c2C(=O)N(c2ccc(N4CCCCC4=O)cc2)CC3)cc1 ?
Out: > 30 µM

###

targetOfAssay: Kappa-type opioid receptor (Homo sapiens); note: assay procedure not described here
Sequence (P41145 whole entry): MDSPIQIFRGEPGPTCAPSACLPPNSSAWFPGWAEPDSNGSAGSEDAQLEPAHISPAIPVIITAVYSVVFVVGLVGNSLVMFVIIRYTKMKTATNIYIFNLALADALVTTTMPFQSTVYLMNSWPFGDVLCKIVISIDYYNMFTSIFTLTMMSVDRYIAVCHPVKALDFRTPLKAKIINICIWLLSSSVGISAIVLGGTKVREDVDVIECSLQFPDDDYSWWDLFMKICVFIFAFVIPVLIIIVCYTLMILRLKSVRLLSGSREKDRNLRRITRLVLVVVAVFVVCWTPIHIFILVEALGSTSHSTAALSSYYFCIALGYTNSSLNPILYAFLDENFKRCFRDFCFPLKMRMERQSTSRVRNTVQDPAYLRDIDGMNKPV
Recorded AC50 by entry
Expressed in µM, but write only the number.

Some compounds with known AC50 results, for comparison:
[
  {
    "cpdSmiles": "CN1CCCN=C1/C=C/c1cccc(O)c1",
    "targetOfAssay": "Kappa-type opioid receptor (Homo sapiens)",
    "endpointUnit": "µM",
    "assayResult": 20
  },
  {
    "cpdSmiles": "Cc1nnc2n1-c1ccc(Cl)cc1C(c1ccccc1)=NC2",
    "targetOfAssay": "Kappa-type opioid receptor (Homo sapiens)",
    "endpointUnit": "µM",
    "assayResult": 7.48
  }
]

# next compound below
In: I would be grateful if you could share the reported AC50 for CCOC(=O)Nc1ccc(NCc2ccc(F)cc2)nc1N .
Out: 18

###

Listing of recorded AC50 by entry.
targetOfAssay: Neuronal acetylcholine receptor subunit alpha-4 (Homo sapiens, UniProt P43681); note: assay procedure not described here
Sequence (P43681 whole entry): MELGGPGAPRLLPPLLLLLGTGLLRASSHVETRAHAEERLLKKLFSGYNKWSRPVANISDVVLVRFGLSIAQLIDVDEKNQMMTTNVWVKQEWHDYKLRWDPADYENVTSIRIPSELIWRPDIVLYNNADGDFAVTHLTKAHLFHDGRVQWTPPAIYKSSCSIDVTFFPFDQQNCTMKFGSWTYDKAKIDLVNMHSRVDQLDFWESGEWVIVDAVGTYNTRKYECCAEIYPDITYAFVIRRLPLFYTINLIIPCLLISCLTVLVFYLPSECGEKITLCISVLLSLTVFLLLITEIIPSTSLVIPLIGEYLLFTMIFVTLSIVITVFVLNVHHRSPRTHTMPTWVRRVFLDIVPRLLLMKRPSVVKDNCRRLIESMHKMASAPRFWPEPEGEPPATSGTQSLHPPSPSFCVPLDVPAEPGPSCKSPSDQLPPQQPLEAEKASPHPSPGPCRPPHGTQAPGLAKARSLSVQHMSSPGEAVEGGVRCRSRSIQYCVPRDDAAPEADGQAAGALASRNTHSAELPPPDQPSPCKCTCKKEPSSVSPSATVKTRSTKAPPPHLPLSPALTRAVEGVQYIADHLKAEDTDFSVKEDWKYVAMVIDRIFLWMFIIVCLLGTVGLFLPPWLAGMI

In: Can you share its AC50? I mean this molecule: Oc1cc(O)c2c(c1)O[C@H](c1ccc(O)c(O)c1)[C@@H](O)C2
Out: > 10 µM

In: Here is the next molecule: Nc1c2c(nc3ccccc13)CCCC2O (centres undefined)
Out: > 30 µM

###

targetOfAssay: 5-hydroxytryptamine receptor 6 (Homo sapiens); note: assay procedure not described here
Sequence (P50406 whole entry): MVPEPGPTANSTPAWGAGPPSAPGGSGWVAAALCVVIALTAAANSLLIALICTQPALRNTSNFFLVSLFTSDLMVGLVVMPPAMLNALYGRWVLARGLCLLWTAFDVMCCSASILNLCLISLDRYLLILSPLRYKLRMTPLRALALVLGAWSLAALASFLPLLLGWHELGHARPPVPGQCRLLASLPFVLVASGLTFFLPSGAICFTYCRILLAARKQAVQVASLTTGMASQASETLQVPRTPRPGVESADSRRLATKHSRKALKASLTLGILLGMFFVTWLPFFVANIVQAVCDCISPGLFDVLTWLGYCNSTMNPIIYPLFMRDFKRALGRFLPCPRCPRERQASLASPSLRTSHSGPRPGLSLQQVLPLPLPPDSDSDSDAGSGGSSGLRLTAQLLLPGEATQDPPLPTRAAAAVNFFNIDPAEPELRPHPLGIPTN
Listing of entries alongside the reported AC50.

[
  {
    "molecule": "CN1C2CCCC1CC(NC(=O)c1nn(C)c3ccccc13)C2 (centres undefined) [GRANISETRON]",
    "AC50": "> 10 µM"
  },
  {
    "molecule": "OCCOCCN1CCN(C(c2ccccc2)c2ccc(Cl)cc2)CC1 (centres undefined) [HYDROXYZINE]",
    "AC50": "2.2 µM"
  },
  {
    "molecule": "CC(NC(C)(C)C)C(=O)c1cccc(Cl)c1 (centres undefined) [BUPROPION]",
    "AC50": "> 10 µM"
  }
]

In: 5-hydroxytryptamine receptor 6 (Homo sapiens) / AC50 / CC(=O)Oc1ccccc1C(=O)O [ASPIRIN] : value?
Out: > 10 µM

In: Try the molecule Cc1ccc(O)c([C@H](CCN(C(C)C)C(C)C)c2ccccc2)c1 [TOLTERODINE]
Out: > 10 µM

###

Reported AC50 values are given for each entry in this list.
targetOfAssay: Gamma-aminobutyric acid receptor subunit alpha-1 (Rattus norvegicus)
Assay type: functional

Consider the following illustrative entries.
[
  {
    "compound": "OCCOCCN1CCN(C(c2ccccc2)c2ccc(Cl)cc2)CC1 (configuration not stated) [HYDROXYZINE]",
    "measuredMetric": "AC50",
    "assayResult": "> 10 µM"
  },
  {
    "compound": "OCCN(CCO)c1nc(N2CCCCC2)c2nc(N(CCO)CCO)nc(N3CCCCC3)c2n1 [DIPYRIDAMOLE]",
    "measuredMetric": "AC50",
    "assayResult": "1.4 µM"
  },
  {
    "compound": "CC1(C)O[C@@H]2C[C@H]3[C@@H]4CCC5=CC(=O)C=C[C@]5(C)[C@@]4(F)[C@@H](O)C[C@]3(C)[C@]2(C(=O)CO)O1 [TRIAMCINOLONE ACETONIDE]",
    "measuredMetric": "AC50",
    "assayResult": "> 30 µM"
  },
  {
    "compound": "CN(C)[C@@H]1C(O)=C(C(=O)NCN2CCCC2)C(=O)[C@@]2(O)C(O)=C3C(=O)c4c(O)cccc4[C@@](C)(O)[C@H]3C[C@@H]12 [ROLITETRACYCLINE]",
    "measuredMetric": "AC50",
    "assayResult": "> 10 µM"
  },
  {
    "compound": "NCCCCCC(=O)O [AMINOCAPROIC ACID]",
    "measuredMetric": "AC50",
    "assayResult": "> 10 µM"
  },
  {
    "compound": "COc1cc(N)cn[n+]1-c1ccccc1 [AMEZINIUM METILSULFATE]",
    "measuredMetric": "AC50",
    "assayResult": "> 30 µM"
  }
]

In: Returns the measured AC50 for the input compound. Input: O=C(O)c1ccc2nc(-c3cc(Cl)cc(Cl)c3)oc2c1
Out: > 30 µM

In: Could you do the same for CCC(NC(C)C)C(O)c1ccc(O)c(O)c1 (configuration not stated) [ISOETHARINE] , please?
Out: > 30 µM

In: Same again, this time with CC(C)CN(C[C@@H](O)[C@H](Cc1ccccc1)NC(=O)O[C@H]1CCOC1)S(=O)(=O)c1ccc(N)cc1
Out: > 10 µM

In: Would you mind doing CN1CCCN=C1/C=C/c1cccc(O)c1 [OXANTEL] as well?
Out: > 30 µM

In: Also need CCCCOC(=O)C(=O)Nc1cccc(-c2nnn[nH]2)c1 [TAZANOLAST] , thanks.
Out: > 30 µM
